B1: tRNA (parent)
chain: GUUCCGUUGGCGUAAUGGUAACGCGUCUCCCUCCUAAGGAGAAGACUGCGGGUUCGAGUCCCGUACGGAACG

variants of: B1; assay: yeast fitness, log relative to wild type (ln ratio); higher = fitter; tRNA-Arg(CCU), competitive growth, 37 C, 1 M NaCl
Tag: true if measured yeast fitness (ln) is not below -0.2, false if it is.

mutant.id	class.label
G1A C27U C46U A70U C71U	true
G1A U2G G6A C27U C46U C66U A70G C71U	false
U2G G6U C27U A43C C46U C66A A70G	false
U2G C27U A43C C66U A69G A70U C71U	false
U2C G6U C27U A43C C66A A70G	true
U2G C27U A69G A70U C71U	false
G1A A43C C66U A69G C71U	false
U2G G6A A43C C66U A69G A70U	false
U2C C27U A43C C66U A69G C71U	false
G1A U2G C27U A43C A69G A70U	false
